assay: activity coefficient (dimensionless); of the first substance listed, at infinite dilution; xn = mol fraction of the nth substance listed; details: 323 K; 101 kPa; Liquid; Chromatography; x1 = 0
activity coefficient values, listed per item

CC(C)O [propan-2-ol] + CCn1cc[n+](C)c1.F[B-](F)(F)F	1.05
C=CCCCC [hex-1-ene] + CCn1cc[n+](C)c1.F[B-](F)(F)F	43.2
ClCCCl [1,2-dichloroethane] + CCn1cc[n+](C)c1.F[B-](F)(F)F	1.32

Query: What value of measured activity coefficient is listed for CC(C)=O [acetone] + CCCCCCCC[n+]1ccn(C)c1.F[B-](F)(F)F ?
Result: 0.78

Query: What value of measured activity coefficient is listed for CCCCCC [hexane] + CCCCCCCC[n+]1ccn(C)c1.F[B-](F)(F)F ?
Result: 12.8

Query: What value of measured activity coefficient is listed for CO [methanol] + CCCCn1cc[n+](C)c1.F[B-](F)(F)F ?
Result: 1.21

Query: What value of measured activity coefficient is listed for CCCCCCC [heptane] + CCCCCCn1cc[n+](C)c1.F[B-](F)(F)F ?
Result: 39.9

Query: What value of measured activity coefficient is listed for CCO [ethanol] + CCCCCCCC[n+]1ccn(C)c1.F[B-](F)(F)F ?
Result: 1.24

Query: What value of measured activity coefficient is listed for CCC(C)=O [butanone] + CCCCCCn1cc[n+](C)c1.F[B-](F)(F)F ?
Result: 1.14

Query: What value of measured activity coefficient is listed for CCCO [propan-1-ol] + CCCCn1cc[n+](C)c1.F[B-](F)(F)F ?
Result: 2.64
